// cross-study collection: pIC50 for Tyrosine-protein phosphatase non-receptor type 1 (Homo sapiens, UniProt P18031)
Scale for pIC50: -log10 of concentration given in mol/L; no unit attached.

Below, each entry is followed by its recorded pIC50 result.
[
  {
    "compound-structure": "Cc1ccc(-c2ccc(O[C@H](Cc3ccccc3)C(=O)O)cc2)n1CCc1ccc(Br)cc1",
    "pIC50": 6.51
  },
  {
    "compound-structure": "CCc1csc([C@H](Cc2ccc(NS(=O)(=O)O)cc2)NC(=O)Cc2ccc(F)c(F)c2)n1",
    "pIC50": 4.62
  },
  {
    "compound-structure": "O=C(NCCc1cnc2n(c1=O)CCCC2)c1ccc2sc(C(F)(F)P(=O)(O)O)c(Br)c2c1",
    "pIC50": 5.56
  }
]

Now consider a different compound.
Let me check: NC(=O)c1cc(OCc2ccc(-c3cncnc3)cc2)c2sc(C(F)(F)P(=O)(O)O)c(Br)c2c1 , system Tyrosine-protein phosphatase non-receptor type 1 (Homo sapiens, UniProt P18031), measured pIC50 is 7.10

====

pIC50: −log10 of the molar value.
Reported pIC50 on Tyrosine-protein phosphatase non-receptor type 1 (Homo sapiens) for assorted molecules, compiled from publications.
Use 5 as the dividing line for pIC50, with the line itself on the 1 (yes) side and lower values as 0 (no).

# example entries with known answers
[
  {
    "molecule": "Cc1nc([C@H](Cc2ccc(NS(=O)(=O)O)cc2)NC(=O)OC(C)(C)C)cs1",
    "class-label": "0 (no)"
  },
  {
    "molecule": "COc1c(OCCCCc2ccc(O)cc2O)cc2c(c1C=O)CC(O)OC2=O (centres unmarked)",
    "class-label": "0 (no)"
  },
  {
    "molecule": "CCNS(=O)(=O)c1ccccc1-c1ccc2c(NC)nc(N)nc2c1",
    "class-label": "1 (yes)"
  },
  {
    "molecule": "CNS(=O)(=O)CCCOc1cc(C(N)=O)cc2c(Br)c(C(F)(F)P(=O)(O)O)sc12",
    "class-label": "1 (yes)"
  }
]

In: Please tell me: is the molecule NC(=O)c1cc(OCc2ccc(-c3ncccn3)cc2)c2sc(C(F)(F)P(=O)(O)O)c(Br)c2c1 at or over 5 in terms of pIC50?
Out: 1 (yes)

In: Quick check: does O=C1CN(c2c(O)ccc(-c3ccnc(OCC4CC4)c3)c2F)S(=O)(=O)N1 have pIC50 greater than or equal to 5?
Out: 1 (yes)

====

Reported log10(IC50) against UniProt:P18031, gathered from multiple publications, appears below.
// stored as log10 of IC50 expressed in nM

[
  {
    "molecule": "COc1c(OCC2CCCCCC2)cc2c(c1C=O)CC(O)OC2=O (stereo not shown)",
    "log10(IC50)": 4.43
  }
]

log10(IC50) recorded for this molecule, CNC(=O)c1cc(OCCCS(C)(=O)=O)c2sc(C(F)(F)P(=O)(O)O)c(C)c2c1 , is 1.79

Record COc1ccc(C2COc3c(ccc4c3CCC(C)(C)O4)C2)c(O)c1 (stereo not shown) , field log10(IC50): 3.81

====

Here is a set of compounds with reported IC50 for Tyrosine-protein phosphatase non-receptor type 1 (Homo sapiens), compiled from the literature.
Express it in nM; write the number only.

[
  {
    "compound-structure": "O=S(=O)(O)Nc1ccc(C[C@H](Nc2nnc(-c3ccccc3)s2)c2csc(-c3ccccc3)n2)cc1",
    "IC50, nM": 3700
  },
  {
    "compound-structure": "O=C(O)/C=C/c1ccc(-c2nc(-c3cc(F)ccc3F)[nH]c2-c2ccc(/C=C/C(=O)O)cc2)cc1",
    "IC50, nM": 680
  },
  {
    "compound-structure": "COc1ccc(COc2cc(C(N)=O)cc3c(Br)c(C(F)(F)P(=O)(O)O)sc23)cc1F",
    "IC50, nM": 26.9
  }
]

What the record says about CCCCCCCCCCCCNC(=O)c1ccc(CN(Cc2ccc(C(F)(F)F)cc2)C(=O)C(=O)O)cc1 : IC50 is 2220
